Exercise: state measured Biodistribution: Muscle for each of the compounds provided.
# Test system: NRG-mice bearing LNCaP tumors
# protocol-notes: Biodistribution (and PET/SPECT imaging) in NRG-mice bearing LNCaP tumors
# Type: in vivo
# condition-summary: 24 h p.i., Avg
# Protocol: LNCaP cell line was obtained from ATCC (LNCaP clone FGC, CRL-1740). It was established from a metastatic site of left supraclavicular lymph node of human prostatic adenocarcinoma. […] The collected cells number was counted with a Hausser Scientific (Horsham, PA) Hemacytometer. […] PET imaging experiments were conducted using Siemens Inveon micro PET/CT scanner. […] Then, a 10-min static PET imaging or a one hour (30 min×2 frames) of static SPECT scan was performed to determined uptake in tumor and other organs. […]
*1 amine or outer side, *2 acyl side, *3 side chain or, on linkers, in order; H or OH if unused. Where a SMILES comes first, the peptide text is derived from it. [ ]: non-standard residue; d: D form. The star is where a group is joined. ξ: configuration not given here. ξLys(Nα-CO-ξAad) = O=C(O)CCCC(NC(=O)NC(CCCCN*)C(=O)O)C(=O)O; Butanoyl(4-(4-NO2Ph)) = O=C(CCCc1ccc([N+](=O)[O-])cc1)*; DOTA = O=C(O)CN1CCN(CC(=O)O)CCN(CC(=O)*)CCN(CC(=O)O)CC1; Butanoyl(4-(4-MeO-phenyl)) = COc1ccc(CCCC(=O)*)cc1; ξAla(9-anthryl) = NC(Cc1c2ccccc2cc2ccccc12)C(=O)O; X2 = O=C(NC(CCCCN*)C(=O)O)NC(CC(F)C(=O)O)C(=O)O; X1 = O=C(C1CCC(CN[*:1])CC1)[*:2]; ξK = NCCCCC(N)C(=O)O
I only need the number, in % ID/g, no unit after it.

Prompt: Hello, I am looking for reported Biodistribution: Muscle with NRG-mice bearing LNCaP tumors for COc1ccc(CCCC(=O)NCC(=O)NC(CCCCNC(=O)CN2CCN(CC(=O)[O-])CCN(CC(=O)[O-])CCN(CC(=O)[O-])CC2)C(=O)NCC2CCC(C(=O)NC(Cc3c4ccccc4cc4ccccc34)C(=O)NCCCCC(NC(=O)NC(CCCC(=O)O)C(=O)O)C(=O)O)CC2)cc1.[177Lu+3] (stereo not shown) [^177Lu-HTK03170, reference compound] . Could you help?
Response: 0.10

Prompt: Hello, I am looking for reported Biodistribution: Muscle with NRG-mice bearing LNCaP tumors for COc1ccc(CCCC(=O)NCC(=O)NC(CCCCNC(=O)CN2CCN(CC(=O)[O-])CCN(CC(=O)[O-])CCN(CC(=O)[O-])CC2)CC(=O)NCC2CCC(C(=O)NC(Cc3c4ccccc4cc4ccccc34)C(=O)NCCCCC(NC(=O)NC(CC(F)C(=O)O)C(=O)O)C(=O)O)CC2)cc1.[177Lu+3] (stereo not shown) [^177Lu-CCZ02019] . Could you help?
Response: 0.11

Prompt: Hello, I am looking for reported Biodistribution: Muscle with NRG-mice bearing LNCaP tumors for COc1ccc(CCCC(=O)NCC(=O)NC(CCCCNC(=O)CN2CCN(CC(=O)[O-])CCN(CC(=O)[O-])CCN(CC(=O)[O-])CC2)C(=O)NCC(=O)NCC2CCC(C(=O)NC(Cc3c4ccccc4cc4ccccc34)C(=O)NCCCCC(NC(=O)NC(CC(F)C(=O)O)C(=O)O)C(=O)O)CC2)cc1.[177Lu+3] (stereo not shown) [^177Lu-CCZ02008] ({Butanoyl(4-(4-MeO-phenyl))}-G[ξK](DOTA)G[X1][ξAla(9-anthryl)]-X2) . Could you help?
Response: 0.40

Prompt: Hello, I am looking for reported Biodistribution: Muscle with NRG-mice bearing LNCaP tumors for O=C([O-])CN1CCN(CC(=O)[O-])CCN(CC(=O)NCCCCC(NC(=O)CNC(=O)CCCc2ccc([N+](=O)[O-])cc2)C(=O)NCC(=O)NCC2CCC(C(=O)NC(Cc3c4ccccc4cc4ccccc34)C(=O)NCCCCC(NC(=O)NC(CCCC(=O)O)C(=O)O)C(=O)O)CC2)CCN(CC(=O)[O-])CC1.[177Lu+3] (stereo not shown) [^177Lu-CCZ02017] ({Butanoyl(4-(4-NO2Ph))}-G[ξK](DOTA)G[X1][ξAla(9-anthryl)]-{ξLys(Nα-CO-ξAad)}) . Could you help?
Response: 0.08
